B1: Pistol ribozyme (parent)
chain: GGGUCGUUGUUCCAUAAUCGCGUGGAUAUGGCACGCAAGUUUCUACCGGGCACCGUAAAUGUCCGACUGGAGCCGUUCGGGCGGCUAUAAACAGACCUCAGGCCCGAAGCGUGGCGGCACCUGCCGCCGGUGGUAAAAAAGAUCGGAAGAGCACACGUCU

- Variants of: B1
- test: aptazyme ON/OFF ratio, guanine; higher = stronger switching; co-transcriptional cleavage with and without guanine
readoutType: aptazyme ON/OFF ratio
Lab note: jot down the number only; don't add units.

Req: Quick one: aptazyme ON/OFF ratio of U7G U8A G9C U10A U11A C12G C13U ?
Resp: 1.02

Req: And U8G U10A U11C ?
Resp: 1.02

Req: And U8C G9U U10C U11A C13G ?
Resp: 1.05

Req: And U7A G9U U10G U11G C12A C13A ?
Resp: 1.11

Req: And U7C U8A G9A U11G ?
Resp: 1.09

Req: And U7C G9C U11C C12U ?
Resp: 1.04

Req: And U8A G9U U10C C12U ?
Resp: 1.08

Req: And U8C U10G U11C ?
Resp: 1.1

Req: And U7G U8A G9U U10A U11C C12G C13A ?
Resp: 1.06

Req: And U7A U8G G9A U10C C12U C13G ?
Resp: 1.13

Req: And U7C G9C U10C C12G C13G ?
Resp: 1.12

Req: And U7G G9C U10C U11G C12G C13A ?
Resp: 1.09

Req: And U8C G9A U10G C12U C13U ?
Resp: 1.54

Req: And U7G U8G G9U U11C C12A C13G ?
Resp: 1.15

Req: And U7G U8G G9U U11G C12A C13A ?
Resp: 1.1

Req: And U7A U8G U10C U11C ?
Resp: 2.69

Req: And U7G U10C U11C C12G C13U ?
Resp: 1.06

Req: And G9A U10C U11C C12G C13G ?
Resp: 1.2

Req: And U8C G9C U10G U11C C12U C13A ?
Resp: 1.17

Req: And U7C U8G C13G ?
Resp: 1.16

Req: And U7C G9U U11G C12A C13A ?
Resp: 1.19

Req: And U7G U8G U10G U11C C13U ?
Resp: 1.15

Req: And U7C U8C G9U U11A C12G C13U ?
Resp: 1.13

Req: And U7C G9U U11A C12U C13A ?
Resp: 1.32

Req: And U7C U8A G9A U11C C13U ?
Resp: 1.05

Req: And G9C U10A U11A C12A C13A ?
Resp: 1.4

Req: And U7A U8A G9U U10A U11G C12A C13G ?
Resp: 1.12

Req: And U7C U8C U10A U11A C12A C13G ?
Resp: 1.11

Req: And U7C U8C G9A U10A U11A C12U C13U ?
Resp: 1.11

Req: And U7A U8C G9U U10C U11C C12A C13A ?
Resp: 1.09

Req: And U7A U8A G9A U10A C13U ?
Resp: 1.17

Req: And U8C G9A U10A U11A C12G ?
Resp: 1.32

Req: And U7A G9C U10G U11G C13U ?
Resp: 1.1

Req: And U7G U10G C13U ?
Resp: 1.17

Req: And U8G G9C U10C U11C C12A ?
Resp: 1.05

Req: And U7A U8G G9C U10G C13G ?
Resp: 1.19

Req: And U7A U10G C12G ?
Resp: 1.36

Req: And U7A U8A U10C U11G C12G ?
Resp: 1.34

Req: And U7C U8A U10C U11G C12G C13U ?
Resp: 1.08

Req: And U7C U8C G9C U10G U11A C12G C13U ?
Resp: 1.08

Req: And U7G G9U U11A ?
Resp: 1.42

Req: And U7G U11G C12A C13G ?
Resp: 1.11

Req: And U7C U8C U10A C12G ?
Resp: 1.08

Req: And G9A U10G C13U ?
Resp: 1.52

Req: And U8C G9A U11C C12G C13U ?
Resp: 1.18

Req: And U8G G9C U10C U11C C12U C13A ?
Resp: 1.04
